Answer each item with its documented Activity.
Test: Antioxidant activity assessed as trolox equivalent of […]-induced radical scavenging activity by ORAC-FL method
Assay type: physicochemical
Just the number, please, no unit after it.

Enquiry: Looking for the measured Activity of `COc1cc2oc(-c3ccc(O)cc3)cc(=O)c2c(OC)c1OC` , can you help?
Return: 2.6

Enquiry: # input compound: `CCN(CC)C(=O)Oc1cccc(-c2cc(=O)c3c(OC)c(OC)c(OC)cc3o2)c1` ; wanted: its Activity
Return: 0.31

Enquiry: If you can, please state the reported Activity value of `COc1cc2oc(-c3ccc(OC(=O)N(C(C)C)C(C)C)cc3)cc(=O)c2c(O)c1OC` .
Return: 1

Enquiry: I have this compound here, `COc1cc2oc(-c3cccc(OC(=O)N(C(C)C)C(C)C)c3)cc(=O)c2c(OC)c1OC` , and I need its recorded Activity.
Return: 0.3

Enquiry: Recorded Activity for `COc1cc2oc(-c3ccc(OC(=O)N4CCOCC4)cc3)cc(=O)c2c(O)c1OC` , please?
Return: 0.9

Enquiry: Tell me the measured Activity of `COc1cc2oc(-c3cccc(OC(=O)N4CCOCC4)c3)cc(=O)c2c(O)c1OC` , please.
Return: 1.2

Enquiry: Fill in the blank: the reported Activity of `COc1cc2oc(-c3ccc(OC(=O)N(C(C)C)C(C)C)cc3)cc(=O)c2c(OC)c1OC` is ____.
Return: 0.33

Enquiry: Can you look up the measured Activity of `COc1cc2oc(-c3ccc(OC(=O)N4CCCCC4)cc3)cc(=O)c2c(O)c1OC` for me?
Return: 1.1

Enquiry: Data request, read-out Activity, for `CCN(C)C(=O)Oc1cccc(-c2cc(=O)c3c(OC)c(OC)c(OC)cc3o2)c1`
Return: 0.32

* * *

Organism: Rattus norvegicus
Experiment: Selectivity index, ratio of IC50 for rat serum BuChE to IC50 for rat cortex AChE
Type: cell-free
Classification field: y = Ratio IC50 at or over 3; n = Ratio IC50 under 3.

Enquiry: Reported Ratio IC50 reaches at least 3 for `COc1cc2oc(-c3cccc(OC(=O)N4CCN(C)CC4)c3)cc(=O)c2c(O)c1OC` ?
Return: n

Enquiry: Item `CCN(C)C(=O)Oc1cccc(-c2cc(=O)c3c(OC)c(OC)c(OC)cc3o2)c1` with Ratio IC50 of 3 or above?
Return: y

Enquiry: Determine whether measured Ratio IC50 meets or exceeds 3 for `COc1cc2oc(-c3ccc(OC(=O)N(C)C)cc3)cc(=O)c2c(OC)c1OC`
Return: n

Enquiry: Kindly determine if Ratio IC50 recorded for `CCN(C)C(=O)Oc1ccc(-c2cc(=O)c3c(O)c(OC)c(OC)cc3o2)cc1` is above or exactly 3.
Return: y

Enquiry: Entry `CCN(C)C(=O)Oc1ccc(-c2cc(=O)c3c(OC)c(OC)c(OC)cc3o2)cc1` : is its Ratio IC50 no less than 3?
Return: y

Enquiry: Quick check: does `COc1cc2oc(-c3ccc(OC(=O)N(C(C)C)C(C)C)cc3)cc(=O)c2c(OC)c1OC` have Ratio IC50 greater than or equal to 3?
Return: n

Enquiry: Please check the record `COc1cc2oc(-c3cccc(OC(=O)N4CCN(Cc5ccccc5)CC4)c3)cc(=O)c2c(O)c1OC` and state if its Ratio IC50 is at or above 3.
Return: n

Enquiry: Please check the record `COc1cc2oc(-c3ccc(OC(=O)N4CCN(C)CC4)cc3)cc(=O)c2c(OC)c1OC` and state if its Ratio IC50 is at or above 3.
Return: y

Enquiry: Would you say `CCN(CC)C(=O)Oc1ccc(-c2cc(=O)c3c(O)c(OC)c(OC)cc3o2)cc1` shows Ratio IC50 at minimum 3?
Return: y

Enquiry: Say whether `CCN(C)C(=O)Oc1cccc(-c2cc(=O)c3c(O)c(OC)c(OC)cc3o2)c1` shows Ratio IC50 of 3 or more.
Return: y

Enquiry: In plain terms: is recorded Ratio IC50 at least 3 for `COc1cc2oc(-c3cccc(OC(=O)N4CCCCC4)c3)cc(=O)c2c(OC)c1OC` ?
Return: n

Enquiry: Textbook exercise: given the entry `CCN(CC)C(=O)Oc1cccc(-c2cc(=O)c3c(OC)c(OC)c(OC)cc3o2)c1` , state whether its Ratio IC50 is greater than or equal to 3.
Return: y

Enquiry: Is the recorded value of Ratio IC50 equal to or greater than 3 for this compound? `COc1cc2oc(-c3ccc(OC(=O)N4CCN(C)CC4)cc3)cc(=O)c2c(O)c1OC`
Return: y

Enquiry: Kindly determine if Ratio IC50 recorded for `COc1cc2oc(-c3cccc(OC(=O)N4CCN(C)CC4)c3)cc(=O)c2c(OC)c1OC` is above or exactly 3.
Return: y

Enquiry: Does `CCN(CC)C(=O)Oc1cccc(-c2cc(=O)c3c(O)c(OC)c(OC)cc3o2)c1` have a reported Ratio IC50 of at least 3?
Return: y

Enquiry: Check this compound for Ratio IC50 at or above 3: `COc1cc2oc(-c3ccc(OC(=O)N(C)C)cc3)cc(=O)c2c(O)c1OC`
Return: y

* * *

Assay: Inhibition of rat serum BuChE using butyrylthiocholine iodide as substrate after 15 mins by Ellman method
Format: cell-free
For each record, write down the corresponding IC50.
Could you give me the number in µM? Just the number is fine.

Enquiry: # lookup: IC50 of `COc1cc2oc(-c3ccc(OC(=O)N4CCCCC4)cc3)cc(=O)c2c(OC)c1OC`
Return: 15.3

Enquiry: Would you kindly share the measured IC50 for `CCN(CC)C(=O)Oc1ccc(-c2cc(=O)c3c(OC)c(OC)c(OC)cc3o2)cc1` ?
Return: 8.2

Enquiry: Need IC50 of `COc1cc2oc(-c3cccc(OC(=O)N(C)C)c3)cc(=O)c2c(OC)c1OC` , thanks.
Return: 28.3

* * *

Field: log10(IC50). Provide a value for each of the molecules that follow.
Target: Acetylcholinesterase (Rattus norvegicus, UniProt P37136)
Sequence (P37136 whole entry): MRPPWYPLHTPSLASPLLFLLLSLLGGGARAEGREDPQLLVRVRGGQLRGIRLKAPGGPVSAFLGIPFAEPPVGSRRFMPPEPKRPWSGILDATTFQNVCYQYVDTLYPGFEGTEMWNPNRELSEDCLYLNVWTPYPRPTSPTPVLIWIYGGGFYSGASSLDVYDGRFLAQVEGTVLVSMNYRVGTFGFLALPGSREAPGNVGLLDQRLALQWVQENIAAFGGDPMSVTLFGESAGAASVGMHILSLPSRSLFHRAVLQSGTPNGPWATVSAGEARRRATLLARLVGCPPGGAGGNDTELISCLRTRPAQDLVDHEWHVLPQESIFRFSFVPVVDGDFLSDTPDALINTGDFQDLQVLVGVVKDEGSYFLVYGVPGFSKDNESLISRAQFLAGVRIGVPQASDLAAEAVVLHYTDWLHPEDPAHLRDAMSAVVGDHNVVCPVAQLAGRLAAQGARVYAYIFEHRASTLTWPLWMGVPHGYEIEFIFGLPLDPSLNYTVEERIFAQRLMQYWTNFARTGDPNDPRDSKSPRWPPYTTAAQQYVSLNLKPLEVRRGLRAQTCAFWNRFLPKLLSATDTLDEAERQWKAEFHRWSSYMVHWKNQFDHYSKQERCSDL
Please be aware that the numbers have been log10-transformed from IC50 in µM.

Enquiry: Lookup: log10(IC50) / Acetylcholinesterase (Rattus norvegicus, UniProt P37136) / `CCN(C)C(=O)Oc1cccc(-c2cc(=O)c3c(O)c(OC)c(OC)cc3o2)c1`
Return: 1.17

Enquiry: Please state recorded log10(IC50) (tested on Acetylcholinesterase (Rattus norvegicus, UniProt P37136)) of `COc1cc2oc(-c3ccc(OC(=O)N(C)C)cc3)cc(=O)c2c(OC)c1OC`
Return: 0.92

Enquiry: Could you share what log10(IC50) was measured for `COc1cc2oc(-c3ccc(OC(=O)N(C)C)cc3)cc(=O)c2c(O)c1OC` , tested on Acetylcholinesterase (Rattus norvegicus, UniProt P37136)?
Return: 1.24

Enquiry: Write down the reported log10(IC50) of `COc1cc2oc(-c3ccc(OC(=O)N4CCN(C)CC4)cc3)cc(=O)c2c(O)c1OC` , test system: Acetylcholinesterase (Rattus norvegicus, UniProt P37136).
Return: 0.70

Enquiry: Missing value: log10(IC50), Acetylcholinesterase (Rattus norvegicus, UniProt P37136), entry `COc1cc2oc(-c3ccc(OC(=O)N(C(C)C)C(C)C)cc3)cc(=O)c2c(OC)c1OC` . Fill in?
Return: 1.14

Enquiry: Notebook: pull reported log10(IC50) for Acetylcholinesterase (Rattus norvegicus, UniProt P37136), entry `CCN(CC)C(=O)Oc1ccc(-c2cc(=O)c3c(O)c(OC)c(OC)cc3o2)cc1`
Return: -0.24

Enquiry: Give recorded log10(IC50) with Acetylcholinesterase (Rattus norvegicus, UniProt P37136) for the following molecule: `COc1cc2oc(-c3ccc(OC(=O)N4CCN(C)CC4)cc3)cc(=O)c2c(OC)c1OC`
Return: 1.06

Enquiry: Hello, I am looking for reported log10(IC50) with Acetylcholinesterase (Rattus norvegicus, UniProt P37136) for `CCN(CC)C(=O)Oc1cccc(-c2cc(=O)c3c(O)c(OC)c(OC)cc3o2)c1` . Could you help?
Return: 1.01

Enquiry: Test system Acetylcholinesterase (Rattus norvegicus, UniProt P37136); read-out log10(IC50); what value for `CCN(C)C(=O)Oc1ccc(-c2cc(=O)c3c(O)c(OC)c(OC)cc3o2)cc1` ?
Return: 0.32

Enquiry: # returns recorded log10(IC50) (system: Acetylcholinesterase (Rattus norvegicus, UniProt P37136)) for `CCN(C)C(=O)Oc1cccc(-c2cc(=O)c3c(OC)c(OC)c(OC)cc3o2)c1`
Return: 0.87

Enquiry: Form field: log10(IC50) recorded for `COc1cc2oc(-c3cccc(OC(=O)N(C)C)c3)cc(=O)c2c(O)c1OC` with Acetylcholinesterase (Rattus norvegicus, UniProt P37136) (enter value)
Return: 1.41

Enquiry: Query log10(IC50) on Acetylcholinesterase (Rattus norvegicus, UniProt P37136) for `CCN(C)C(=O)Oc1ccc(-c2cc(=O)c3c(OC)c(OC)c(OC)cc3o2)cc1`
Return: 0.19

Enquiry: Identify the measured log10(IC50) of `COc1cc2oc(-c3cccc(OC(=O)N4CCCCC4)c3)cc(=O)c2c(OC)c1OC` for Acetylcholinesterase (Rattus norvegicus, UniProt P37136).
Return: 1.66

Enquiry: # query: log10(IC50) | item `COc1cc2oc(-c3cccc(OC(=O)N4CCN(Cc5ccccc5)CC4)c3)cc(=O)c2c(OC)c1OC` | system: Acetylcholinesterase (Rattus norvegicus, UniProt P37136)
Return: 1.94

Enquiry: Give Acetylcholinesterase (Rattus norvegicus, UniProt P37136) log10(IC50) for `COc1cc2oc(-c3cccc(OC(=O)N4CCN(Cc5ccccc5)CC4)c3)cc(=O)c2c(O)c1OC`
Return: 1.71

Enquiry: Give Acetylcholinesterase (Rattus norvegicus, UniProt P37136) log10(IC50) for `COc1cc2oc(-c3cccc(OC(=O)N(C(C)C)C(C)C)c3)cc(=O)c2c(OC)c1OC`
Return: 1.94

Enquiry: Please tell me: log10(IC50) of `COc1cc2oc(-c3cccc(OC(=O)N(C)C)c3)cc(=O)c2c(OC)c1OC` , system Acetylcholinesterase (Rattus norvegicus, UniProt P37136)?
Return: 1.57

Enquiry: Tell me reported log10(IC50) for `COc1cc2oc(-c3cccc(OC(=O)N(C(C)C)C(C)C)c3)cc(=O)c2c(O)c1OC` , tested with Acetylcholinesterase (Rattus norvegicus, UniProt P37136).
Return: 1.98

Enquiry: Entry `COc1cc2oc(-c3ccc(OC(=O)N4CCCCC4)cc3)cc(=O)c2c(OC)c1OC` , system Acetylcholinesterase (Rattus norvegicus, UniProt P37136): what log10(IC50) was measured?
Return: 1.33

Enquiry: Missing value: log10(IC50), Acetylcholinesterase (Rattus norvegicus, UniProt P37136), entry `COc1cc2oc(-c3ccc(OC(=O)N4CCCCC4)cc3)cc(=O)c2c(O)c1OC` . Fill in?
Return: 1.25

Enquiry: Identify the measured log10(IC50) of `CCN(CC)C(=O)Oc1cccc(-c2cc(=O)c3c(OC)c(OC)c(OC)cc3o2)c1` for Acetylcholinesterase (Rattus norvegicus, UniProt P37136).
Return: 0.79

Enquiry: Quick check: log10(IC50) on Acetylcholinesterase (Rattus norvegicus, UniProt P37136), item `COc1cc2oc(-c3ccc(OC(=O)N4CCOCC4)cc3)cc(=O)c2c(OC)c1OC` ?
Return: 1.83

Enquiry: Recall the recorded log10(IC50) for `COc1cc2oc(-c3ccc(OC(=O)N4CCN(Cc5ccccc5)CC4)cc3)cc(=O)c2c(O)c1OC` with Acetylcholinesterase (Rattus norvegicus, UniProt P37136) and state it.
Return: 0.97

Enquiry: Record lookup: for Acetylcholinesterase (Rattus norvegicus, UniProt P37136), what log10(IC50) belongs to `CCN(CC)C(=O)Oc1ccc(-c2cc(=O)c3c(OC)c(OC)c(OC)cc3o2)cc1` ?
Return: -0.47

Enquiry: log10(IC50) of `COc1cc2oc(-c3cccc(OC(=O)N4CCN(C)CC4)c3)cc(=O)c2c(O)c1OC` on Acetylcholinesterase (Rattus norvegicus, UniProt P37136)?
Return: 1.37

Enquiry: Return log10(IC50) measured with Acetylcholinesterase (Rattus norvegicus, UniProt P37136) given this molecule: `COc1cc2oc(-c3cccc(OC(=O)N4CCN(C)CC4)c3)cc(=O)c2c(OC)c1OC`
Return: 1.49

Enquiry: Field: log10(IC50) (Acetylcholinesterase (Rattus norvegicus, UniProt P37136)). Entry: `COc1cc2oc(-c3ccc(OC(=O)N4CCN(Cc5ccccc5)CC4)cc3)cc(=O)c2c(OC)c1OC`
Return: 0.02
